Where do these numbers come from? They come from PubChem BioAssay.

biological target: L-lactate dehydrogenase (Plasmodium falciparum (isolate CDC / Honduras)); assay: PfLDH activity inhibition – cell lysate, 3D7 strain, counter-screen for P. falciparum growth inhibition project (AID 2304);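 also: 0% = vehicle and 100% = reference inhibitor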; conditions: P. falciparum 3D7 crude extract, LDH APAD/NBT absorbance; at 2 µM; stronger effect = higher value
Provide the reported inhibition of each item.
Numeric only. Scale: %

Enquiry: State recorded inhibition with L-lactate dehydrogenase (Plasmodium falciparum (isolate CDC / Honduras)), entry CCN(CC)CCN(Cc1ccc(-c2ccc(C(F)(F)F)s2)cc1)C(=O)Cn1c(CCc2cccc(F)c2F)nc(=O)c2ccccc21 , no comment.
Return: 3

Enquiry: Please indicate recorded inhibition of COCCNCc1cccc(-c2ccc(CNC3CCN(Cc4ccccc4)CC3)cc2)c1 measured with L-lactate dehydrogenase (Plasmodium falciparum (isolate CDC / Honduras)).
Return: -7

Enquiry: Write down the reported inhibition (system: L-lactate dehydrogenase (Plasmodium falciparum (isolate CDC / Honduras))) of Cc1cccc2[nH]c(C3CCN(CC4CCN(C(=O)/C=C/c5ccc(Cl)c(Cl)c5)CC4)CC3)nc12
Return: 0

Enquiry: Provide inhibition, system L-lactate dehydrogenase (Plasmodium falciparum (isolate CDC / Honduras)), entry CCn1c2ccccc2c2cc(Cc3cnc(N)nc3N)ccc21
Return: 5

Enquiry: Provide inhibition, system L-lactate dehydrogenase (Plasmodium falciparum (isolate CDC / Honduras)), entry COc1cccc(C(=O)[C@H]2C[C@@H]2CN(C)CCC(O)c2ccc(Cl)c(Cl)c2)c1 (some centres undefined)
Return: -2

Enquiry: Identify measured inhibition obtained with L-lactate dehydrogenase (Plasmodium falciparum (isolate CDC / Honduras)) for COc1cccc(CNC(=O)NC2CCN(c3ccnc(Nc4cc(OC)c(OC)c(OC)c4)n3)C2)c1 (centres undefined) .
Return: -6

Enquiry: Param request: inhibition | system L-lactate dehydrogenase (Plasmodium falciparum (isolate CDC / Honduras)) | item CCc1ccc(C(=O)NC(=O)c2ccccc2O)cc1
Return: 1

Enquiry: Provide inhibition, tested on L-lactate dehydrogenase (Plasmodium falciparum (isolate CDC / Honduras)), for CCN(CC)CCCC(C)Nc1cc(C=Cc2ccccc2Cl)nc2cc(Cl)ccc12 (centres undefined) .
Return: -2

Enquiry: Give inhibition; test system L-lactate dehydrogenase (Plasmodium falciparum (isolate CDC / Honduras)); molecule NC(=O)c1sc(-n2cnc3ccccc32)cc1OCc1ccccc1[N+](=O)[O-]
Return: -2
